Each entry below carries its reported GI50.
system: A375-NRAS^Q61K cells; assay: CTGlo Cell Viability Assay, A375-NRAS^Q61K (A375.11) cells, 96 hours; type: cell-based, human; settings: Homo sapiens, 96 h, A375.11 (A375-NRAS^Q61K) cells

Input CCN(C)S(=O)(=O)Nc1ccc(F)c(Oc2ccc3ncn(C4CC5(CCN(C6CCN(c7cc8c(cc7F)c(N7CCC(=O)NC7=O)nn8C)CC6(F)F)CC5)C4)c(=O)c3c2)c1C#N (stereo not drawn) . Output GI50: 1 to 10 µM

Input Cn1nc(N2CCC(=O)NC2=O)c2cc(F)c(C3CCC(N4CCC5(CC4)CC(n4cnc6ccc(Oc7c(F)ccc(NS(=O)(=O)C8CCCC8)c7C#N)cc6c4=O)C5)CC3)cc21 (single isomer, unassigned) . Output GI50: < 1 µM

Input CC(C)S(=O)(=O)Nc1ccc(F)c(Oc2ccc3ncn([C@H]4COC5(CCN(C6CCC(c7ccc(NC8CCC(=O)NC8=O)cc7F)CC6)CC5)C4)c(=O)c3c2)c1C#N (single isomer, unassigned) . Output GI50: < 1 µM

====

assay: Pharmacokinetics after 21 days dosing in the efficacy study (plasma, tumor and brain concentrations; plasma AUC at steady state), Example 14; format: in vivo, female BALB/c nude mice; conditions: mouse, tumor, po; 1 mg/kg p.o. TID x 21 days; 24 h; mean ± SEM; read-out: Concentration in Tumor
quantity kind: concentration at 24 h (ng/g)
Quick reminder: number only, in ng/g, skip the unit.

Input CCN(C)S(=O)(=O)Nc1ccc(F)c(Oc2ccc3ncn(C4CC5(CCN(C6CC7(C6)CN(c6cc8c(cc6F)c(N6CCC(=O)NC6=O)nn8C)C7)CC5)C4)c(=O)c3c2)c1C#N (stereo not shown) . Output concentration at 24 h: 14.3

====

test: Pharmacokinetics after 21 days dosing in the efficacy study (plasma, tumor and brain concentrations; plasma AUC at steady state), Example 14; assay type: in vivo, female BALB/c nude mice; conditions: mouse, plasma, po; 10 mg/kg p.o. BID x 21 days; 1 h; mean ± SEM
quantity kind: concentration at 1 h (ng/mL)
Quick reminder: number only, in ng/mL, skip the unit.

Input CCN(C)S(=O)(=O)Nc1ccc(F)c(Oc2ccc3ncn([C@H]4COC5(CCN(C6CC7(C6)CN(c6cc8c(cc6F)c(N6CCC(=O)NC6=O)nn8C)C7)CC5)C4)c(=O)c3c2)c1C#N . Output concentration at 1 h: 20200

====

assay: Pharmacokinetics in female BALB/c nude mice bearing A375 xenografts, 1 day dosing (PK and PD study): plasma, tumor and brain concentrations, AUC; format: in vivo; settings: mouse, plasma, po, 0.75 mg/kg, 0.75 mg/kg p.o. BID × 1 day; post 2nd dose; 48 h; read-out: Mean Concentration in Plasma ± SEM
quantity kind: concentration at 48 h (ng/mL)
Quick reminder: number only, in ng/mL, skip the unit.

Input CCN(C)S(=O)(=O)Nc1ccc(F)c(Oc2ccc3ncn(C4CC5(CCN(C6CC7(C6)CN(c6cc8c(cc6F)c(N6CCC(=O)NC6=O)nn8C)C7)CC5)C4)c(=O)c3c2)c1C#N (stereo not shown) . Output concentration at 48 h: 4.96

====

assay: Example 6 pharmacokinetics assay for PKPD study (plasma, tumor, liver); format: in vivo, BALB/c nude mice; conditions: mouse, liver, po; 100 mg/kg, single dose; 12 h; read-out: Concentration in Liver (mean ± SEM)
quantity kind: concentration at 12 h (ng/g)
Quick reminder: number only, in ng/g, skip the unit.

Input CC(C)(C)c1nc(-c2cccc(NS(=O)(=O)c3c(F)cccc3F)c2F)c(-c2ccnc(N)n2)s1 [Dabrafenib, dabrafenib, reference compound] . Output concentration at 12 h: 19.2
